Test system: 156681-154-R-J1 tumor spheroid viability
ASSAY PROTOCOL: Anticancer human tumor 156681-154-R-J1 patient-derived melanoma cell line growth inhibition
CONDITION CONTEXT: second compound 0.0949 µM; first compound 0.3 µM; stronger effect = lower value; spheroids with HUVEC and MSC
MEASURED METRIC: viability, T/C (%)
Write the number in % without appending the unit.

Check out these entries, answers already filled in.
{"MOLECULE": "O=C(c1cc(Cc2n[nH]c(=O)c3ccccc23)ccc1F)N1CCN(C(=O)C2CC2)CC1 + CC[C@@]1(O)C(=O)OCc2c1cc1n(c2=O)Cc2cc3c(CN(C)C)c(O)ccc3nc2-1", "viability, T/C [%]": 35.5}
{"MOLECULE": "Cn1ncnc1[C@H]1c2n[nH]c(=O)c3cc(F)cc(c23)N[C@@H]1c1ccc(F)cc1 + CC[C@@]1(O)C(=O)OCc2c1cc1n(c2=O)Cc2cc3c(CN(C)C)c(O)ccc3nc2-1", "viability, T/C [%]": 31.2}
{"MOLECULE": "CNCc1ccc(-c2cc(-c3nc(-c4ccc(S(=O)(=O)C(C)C)cc4)cnc3N)on2)cc1 + CC[C@@]1(O)C(=O)OCc2c1cc1n(c2=O)Cc2cc3c(CN(C)C)c(O)ccc3nc2-1", "viability, T/C [%]": 14.5}

Now examine the next entry.
Task item: Fill blank: measured viability, T/C of the molecule Cc1sc2c(c1C)C(c1ccc(Cl)cc1)=NC(CC(=O)Nc1ccc(O)cc1)c1nnc(C)n1-2 (centres undefined) + CC[C@@]1(O)C(=O)OCc2c1cc1n(c2=O)Cc2cc3c(CN(C)C)c(O)ccc3nc2-1 is ____.
Reply: 22.5

* * *

Tested on: 156681-154-R-J1 tumor spheroid viability
ASSAY PROTOCOL: Anticancer human tumor 156681-154-R-J1 cell line growth inhibition;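 note: spheroids exposed to compounds for 7 days before readout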;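 for viability, T/C: percent of vehicle control viability where 100% = DMSO-treated spheroids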
CONDITION CONTEXT: second compound 0.03 µM; first compound 0.0949 µM; stronger effect = lower value; spheroids with HUVEC and MSC
MEASURED METRIC: viability, T/C (%)
Write the number in % without appending the unit.

Check out these entries, answers already filled in.
{"COMPOUND": "O=C(c1cc(Cc2n[nH]c(=O)c3ccccc23)ccc1F)N1CCN(C(=O)C2CC2)CC1 + CC[C@@]1(O)C(=O)OCc2c1cc1n(c2=O)Cc2cc3c(CN(C)C)c(O)ccc3nc2-1", "UNIT DESCRIPTOR": "%", "QUANTITATIVE READOUT": 38.4}
{"COMPOUND": "CNCc1ccc(-c2cc(-c3nc(-c4ccc(S(=O)(=O)C(C)C)cc4)cnc3N)on2)cc1 + CC[C@@]1(O)C(=O)OCc2c1cc1n(c2=O)Cc2cc3c(CN(C)C)c(O)ccc3nc2-1", "UNIT DESCRIPTOR": "%", "QUANTITATIVE READOUT": 60.1}
{"COMPOUND": "Cn1ncnc1[C@H]1c2n[nH]c(=O)c3cc(F)cc(c23)N[C@@H]1c1ccc(F)cc1 + CC[C@@]1(O)C(=O)OCc2c1cc1n(c2=O)Cc2cc3c(CN(C)C)c(O)ccc3nc2-1", "UNIT DESCRIPTOR": "%", "QUANTITATIVE READOUT": 22.1}

Now examine the next entry.
Task item: Fill blank: measured viability, T/C of the compound Cc1sc2c(c1C)C(c1ccc(Cl)cc1)=NC(CC(=O)Nc1ccc(O)cc1)c1nnc(C)n1-2 (centres undefined) + CC[C@@]1(O)C(=O)OCc2c1cc1n(c2=O)Cc2cc3c(CN(C)C)c(O)ccc3nc2-1 is ____.
Reply: 51.3

* * *

System: 156681-154-R-J1 tumor spheroid viability
ASSAY PROTOCOL: Anticancer human tumor 156681-154-R-J1 cell line growth inhibition;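 note: spheroids exposed to compounds for 7 days before readout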;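 for viability, T/C: percent of vehicle control viability where 100% = DMSO-treated spheroids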
CONDITION CONTEXT: second compound 0.000949 µM; first compound 1 µM; stronger effect = lower value; spheroids with HUVEC and MSC
Below: a set of entries, each annotated with reported viability, T/C.

{"COMPOUND": "Cc1cc(C)c(CNC(=O)c2cc(-c3ccc(CN4CCOCC4)cc3)cc3c2cnn3C2CCCC2)c(=O)[nH]1 + COc1cc2c(cc1O)CCNC21CSC2c3c(OC(C)=O)c(C)c4c(c3C(COC1=O)N1C(O)C3Cc5cc(C)c(OC)c(O)c5C(C21)N3C)OCO4", "viability, T/C": "6.16%"}

Now examine the next entry.
Task item: Fill blank: measured viability, T/C of the compound CC1COCCN1c1cc(-c2ccnn2C)c2ccnc(-c3ccn[nH]3)c2n1 (configuration not stated) + COc1cc2c(cc1O)CCNC21CSC2c3c(OC(C)=O)c(C)c4c(c3C(COC1=O)N1C(O)C3Cc5cc(C)c(OC)c(O)c5C(C21)N3C)OCO4 is ____.
Reply: 3.29%

* * *

Below: a set of entries, each annotated with reported viability, T/C.
System: 156681-154-R-J1 tumor spheroid viability
ASSAY PROTOCOL: Anticancer human tumor 156681-154-R-J1 cell line growth inhibition;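 note: spheroids exposed to compounds for 7 days before readout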;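 for viability, T/C: percent of vehicle control viability where 100% = DMSO-treated spheroids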
CONDITION CONTEXT: second compound 0.003 µM; first compound 0.949 µM; stronger effect = lower value; spheroids with HUVEC and MSC
Write the number in % without appending the unit.

Check out these entries, answers already filled in.
{"COMPOUND": "Cc1sc2c(c1C)C(c1ccc(Cl)cc1)=NC(CC(=O)Nc1ccc(O)cc1)c1nnc(C)n1-2 (stereo not given) + CC[C@@]1(O)C(=O)OCc2c1cc1n(c2=O)Cc2cc3c(CN(C)C)c(O)ccc3nc2-1", "QUANTITATIVE READOUT": 61.1}
{"COMPOUND": "Cn1ncnc1[C@H]1c2n[nH]c(=O)c3cc(F)cc(c23)N[C@@H]1c1ccc(F)cc1 + CC[C@@]1(O)C(=O)OCc2c1cc1n(c2=O)Cc2cc3c(CN(C)C)c(O)ccc3nc2-1", "QUANTITATIVE READOUT": 47.8}
{"COMPOUND": "Cn1ncnc1[C@H]1c2n[nH]c(=O)c3cc(F)cc(c23)N[C@@H]1c1ccc(F)cc1 + COc1cc2c(cc1O)CCNC21CSC2c3c(OC(C)=O)c(C)c4c(c3C(COC1=O)N1C(O)C3Cc5cc(C)c(OC)c(O)c5C(C21)N3C)OCO4", "QUANTITATIVE READOUT": 0.13}

Task item: Fill blank: measured viability, T/C of the compound O=C(c1cc(Cc2n[nH]c(=O)c3ccccc23)ccc1F)N1CCN(C(=O)C2CC2)CC1 + CC[C@@]1(O)C(=O)OCc2c1cc1n(c2=O)Cc2cc3c(CN(C)C)c(O)ccc3nc2-1 is ____.
Reply: 74.2

Task item: Fill blank: measured viability, T/C of the compound CNCc1ccc(-c2cc(-c3nc(-c4ccc(S(=O)(=O)C(C)C)cc4)cnc3N)on2)cc1 + CC[C@@]1(O)C(=O)OCc2c1cc1n(c2=O)Cc2cc3c(CN(C)C)c(O)ccc3nc2-1 is ____.
Reply: 46.8

* * *

Below: a set of entries, each annotated with reported IC50.
Test system: 156681-154-R-J1 tumor spheroid viability
ASSAY PROTOCOL: Anticancer human tumor 156681-154-R-J1 cell line growth inhibition;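 note: spheroids exposed to compounds for 7 days before readout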
CONDITION CONTEXT: curve of first compound; second compound 94.9 pM; spheroids with HUVEC and MSC

Check out these entries, answers already filled in.
{"MOLECULE": "CC(C)n1c(=O)n(C)c2cnc3cc(F)c(-c4ccc(OCCCN5CCCCC5)nc4)cc3c21 + COc1cc2c(cc1O)CCNC21CSC2c3c(OC(C)=O)c(C)c4c(c3C(COC1=O)N1C(O)C3Cc5cc(C)c(OC)c(O)c5C(C21)N3C)OCO4", "MEASURED METRIC": "IC50", "RESULT": "> 10 µM"}
{"MOLECULE": "O=C(c1cc(Cc2n[nH]c(=O)c3ccccc23)ccc1F)N1CCN(C(=O)C2CC2)CC1 + COc1cc2c(cc1O)CCNC21CSC2c3c(OC(C)=O)c(C)c4c(c3C(COC1=O)N1C(O)C3Cc5cc(C)c(OC)c(O)c5C(C21)N3C)OCO4", "MEASURED METRIC": "IC50", "RESULT": "> 30 µM"}

Now examine the next entry.
Task item: Fill blank: measured IC50 of the molecule Cc1cc(C)c(CNC(=O)c2cc(-c3ccc(CN4CCOCC4)cc3)cc3c2cnn3C2CCCC2)c(=O)[nH]1 + COc1cc2c(cc1O)CCNC21CSC2c3c(OC(C)=O)c(C)c4c(c3C(COC1=O)N1C(O)C3Cc5cc(C)c(OC)c(O)c5C(C21)N3C)OCO4 is ____.
Reply: > 10 µM

* * *

Below: a set of entries, each annotated with reported viability, T/C.
Test system: 156681-154-R-J1 tumor spheroid viability
ASSAY PROTOCOL: Anticancer human tumor 156681-154-R-J1 cell line growth inhibition;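 note: spheroids exposed to compounds for 7 days before readout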;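 for viability, T/C: percent of vehicle control viability where 100% = DMSO-treated spheroids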
CONDITION CONTEXT: second compound 30 pM; first compound 0.316 µM; stronger effect = lower value; spheroids with HUVEC and MSC
Procedure: Multicellular complex tumor spheroid response to DNA repair inhibitors in combination with DNA-damaging drugs This study explores the anticancer activities of DNA-damaging drugs and inhibitors of DNA damage repair, both as single agents and in combinations. […] Twenty-six patient-derived or established malignant cell lines were evaluated representing sarcoma, melanoma, small cell lung cancer (SCLC), non-small cell lung cancer (NSCLC), as well as bladder, ovarian and pancreatic cancers. […]
Write the number in % without appending the unit.

Check out these entries, answers already filled in.
{"MOLECULE": "COc1ccc([C@@H](O)c2cc(-c3ncnc4cc(N5CCOCC5)ccc34)c(F)cc2Cl)nn1 + COc1cc2c(cc1O)CCNC21CSC2c3c(OC(C)=O)c(C)c4c(c3C(COC1=O)N1C(O)C3Cc5cc(C)c(OC)c(O)c5C(C21)N3C)OCO4", "QUANTITATIVE READOUT": 88.5}
{"MOLECULE": "Cc1cc(C)c(CNC(=O)c2cc(-c3ccc(CN4CCOCC4)cc3)cc3c2cnn3C2CCCC2)c(=O)[nH]1 + COc1cc2c(cc1O)CCNC21CSC2c3c(OC(C)=O)c(C)c4c(c3C(COC1=O)N1C(O)C3Cc5cc(C)c(OC)c(O)c5C(C21)N3C)OCO4", "QUANTITATIVE READOUT": 87.3}
{"MOLECULE": "[2H]c1nc(C)nc([2H])c1-c1cc(NC[C@@H](C)c2cccc3c(C(=O)NC)ccnc23)ncn1 + COc1cc2c(cc1O)CCNC21CSC2c3c(OC(C)=O)c(C)c4c(c3C(COC1=O)N1C(O)C3Cc5cc(C)c(OC)c(O)c5C(C21)N3C)OCO4", "QUANTITATIVE READOUT": 109}

Now examine the next entry.
Task item: Fill blank: measured viability, T/C of the molecule COc1cc(C)[nH]c(=O)c1CN1CCc2c(Cl)cc(C(OC)C3COC3)c(Cl)c2C1=O (centres undefined) + COc1cc2c(cc1O)CCNC21CSC2c3c(OC(C)=O)c(C)c4c(c3C(COC1=O)N1C(O)C3Cc5cc(C)c(OC)c(O)c5C(C21)N3C)OCO4 is ____.
Reply: 94.9
